These entries and their values trace back to paper PMC3961306.

assay target: panel of more than 300 wild-type and mutant kinases (313 kinase panel) (Homo sapiens)
method description: Kinase profiling in a biochemical assay panel (mobility shift assays and ELISA), %-inhibition at 1 μM; selectivity entropy
condition set: kinase ITK; compound at 1 μM
Items are presented alongside their recorded %-inhibition of ITK.
assay endpoint: %-inhibition of ITK (%)

[[record]]
mol = "CO[C@H]1C[C@@H]2CC[C@@H](C)[C@@](O)(O2)C(=O)C(=O)N2CCCC[C@H]2C(=O)O[C@H]([C@H](C)C[C@@H]2CC[C@@H](OC(=O)C(C)(CO)CO)[C@H](OC)C2)CC(=O)[C@H](C)/C=C(\\C)[C@@H](O)[C@@H](OC)C(=O)[C@H](C)C[C@H](C)/C=C/C=C/C=C/1C"
reported_measurement = -1.7

[[record]]
mol = "O=S(=O)(c1cccc2cnccc12)N1CCCNCC1"
reported_measurement = -9

[[record]]
mol = "CS(=O)(=O)CCNCc1ccc(-c2ccc3ncnc(Nc4ccc(OCc5cccc(F)c5)c(Cl)c4)c3c2)o1"
reported_measurement = -1.89

[[record]]
mol = "CC(=O)Nc1cccc(-n2c(=O)n(C3CC3)c(=O)c3c(Nc4ccc(I)cc4F)n(C)c(=O)c(C)c32)c1"
reported_measurement = -7.56

[[record]]
mol = "CCCS(=O)(=O)Nc1ccc(F)c(C(=O)c2c[nH]c3ncc(-c4ccc(Cl)cc4)cc23)c1F"
reported_measurement = 3

[[record]]
mol = "CC(C)(C)c1nc(-c2cccc(NS(=O)(=O)c3c(F)cccc3F)c2F)c(-c2ccnc(N)n2)s1"
reported_measurement = 49

